- TARGET_OF_ASSAY: Melanin-concentrating hormone receptor 1 (Homo sapiens)
- ASSAY: Displacement of [125I]MCH from human MCHR1 expressed in HEK293 cells
- Assay type: cell-based
REPORTED_METRIC: IC50 (nM)

Example results:
COMPOUND: CC(NC(=O)CC1CCN(Cc2ccn(-c3ccc(C(F)(F)F)cc3)c2)CC1)c1ccc(=O)[nH]c1 (centres undefined)
SCALE_UNIT: nM
IC50: 67
--
COMPOUND: COc1ccc(C(NC(=O)CC2CCN(Cc3ccn(-c4ccc(C(F)(F)F)cc4)c3)CC2)c2ccc(F)cc2)cn1 (centres undefined)
SCALE_UNIT: nM
IC50: 2

a: CCCCC(NC(=O)CC1CCN(Cc2ccn(-c3ccc(C(F)(F)F)cc3)c2)CC1)c1ccc(=O)[nH]c1 (centres undefined)
b: O=C(CC1CCN(Cc2ccn(-c3ccc(C(F)(F)F)cn3)c2)CC1)NC(c1ccc(F)cc1)c1ccc(F)cc1
Query: Please state the entry with greater IC50 among a and b . # respond with the chosen item's label
Response: b
(b: 13 nM, a: 1 nM)

###

- TARGET_OF_ASSAY: Melanin-concentrating hormone receptor 1 (Homo sapiens)
- ASSAY: Displacement of [125I]MCH from human MCHR1 expressed in HEK293 cells
- Type: cell-based
pIC50: −log10 of the molar value.
REPORTED_METRIC: pIC50

Example results:
COMPOUND: O=C(NCCc1ccccn1)C1CCN(Cc2ccn(-c3ccc(C(F)(F)F)cc3)c2)CC1
pIC50: 6.47
--
COMPOUND: CCN(CC)C(=O)C1CCCN(C(=O)CC2CCN(Cc3ccn(-c4ccc(C(F)(F)F)cc4)c3)CC2)C1 (configuration not stated)
pIC50: 7.43
--
COMPOUND: O=C(NCc1ccc(Cl)cc1O)C1CCN(Cc2ccn(-c3ccc(C(F)(F)F)cc3)c2)CC1
pIC50: 7.66

A: O=C(CC1CCN(Cc2ccc(-c3ccc(Cl)cc3)o2)CC1)N1CCCC(CO)C1 (configuration not stated)
B: O=C(CC1CCN(Cc2ccn(-c3ccc(C(F)(F)F)cc3)c2)CC1)NC(c1ccncc1)c1ccc(Cl)cc1 (configuration not stated)
Query: Given A and given B , which shows the smaller recorded pIC50? # respond with the chosen item's label
Response: A
(A: 6.22, B: 7.77)

I: O=C(CC1CCN(Cc2ccn(-c3ccc(C(F)(F)F)cc3)c2)CC1)N1CCN(C(=O)N2CCCC2)CC1
II: CN(CCC(=O)N1CCCC1)C(=O)CC1CCN(Cc2ccn(-c3ccc(C(F)(F)F)cc3)c2)CC1
Query: Please state the entry with greater pIC50 among I and II . # respond with the chosen item's label
Response: II

A: O=C(CC1CCN(Cc2ccn(-c3ccc(C(F)(F)F)cc3)c2)CC1)NC(c1ccc(F)cc1)c1c[nH]c(=O)c(Cl)c1 (configuration not stated)
B: O=C(NC1CCN(Cc2ccn(-c3ccc(C(F)(F)F)cc3)c2)CC1)NC(c1ccccc1)c1ccccc1
Query: Given A and given B , which shows the smaller recorded pIC50? # respond with the chosen item's label
Response: B

a: O=C(CC1CCN(Cc2ccn(-c3ccc(C(F)(F)F)cc3)c2)CC1)NC(c1ccc(F)cc1)c1cccnc1 (configuration not stated)
b: O=C(NCc1ccc(Cl)cc1Cl)C1CCN(Cc2ccn(-c3ccc(C(F)(F)F)cn3)c2)CC1
Query: Given a and given b , which shows the smaller recorded pIC50? # respond with the chosen item's label
Response: b

###

- TARGET_OF_ASSAY: Melanin-concentrating hormone receptor 1 (Homo sapiens, UniProt Q99705)
- Sequence (Q99705 whole entry): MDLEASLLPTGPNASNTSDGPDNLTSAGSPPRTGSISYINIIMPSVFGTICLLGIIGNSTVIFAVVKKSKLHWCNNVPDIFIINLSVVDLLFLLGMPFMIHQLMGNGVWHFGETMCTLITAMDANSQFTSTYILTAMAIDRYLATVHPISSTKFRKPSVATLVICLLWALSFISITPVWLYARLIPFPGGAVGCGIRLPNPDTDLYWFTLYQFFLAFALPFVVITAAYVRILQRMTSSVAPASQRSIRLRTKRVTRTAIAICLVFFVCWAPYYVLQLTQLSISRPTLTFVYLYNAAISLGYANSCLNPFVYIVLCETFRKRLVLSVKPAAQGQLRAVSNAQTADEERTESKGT
- ASSAY: Displacement of [125I]MCH from human MCHR1 expressed in HEK293 cells
- Assay type: cell-based
pIC50: −log10 of the molar value.
REPORTED_METRIC: pIC50

Example results:
COMPOUND: O=C(CC1CCN(Cc2ccn(-c3ccc(C(F)(F)F)cc3)c2)CC1)NC(c1ccccc1)c1cnc[nH]1 (stereo not drawn)
pIC50: 7.77
--
COMPOUND: O=C(C1CCCCN1C(=O)CC1CCN(Cc2ccn(-c3ccc(C(F)(F)F)cc3)c2)CC1)N1CCCC1 (stereo not drawn)
pIC50: 7.18
--
COMPOUND: CCCCC(NC(=O)CC1CCN(Cc2ccn(-c3ccc(C(F)(F)F)cc3)c2)CC1)c1ccc(OC)nc1 (stereo not drawn)
pIC50: 8.30

A: O=C(CC1CCN(Cc2ccn(-c3ccc(C(F)(F)F)cc3)c2)CC1)N1CCCC(C(=O)N2CCCC2)C1 (stereo not drawn)
B: O=C(CC1CCN(Cc2ccn(-c3ccc(C(F)(F)F)cc3)c2)CC1)N(CCCO)Cc1ccc(F)cc1
Query: Please state the entry with greater pIC50 among A and B . # respond with the chosen item's label
Response: B
(B: 8.40, A: 7.15)

###

- TARGET_OF_ASSAY: Melanin-concentrating hormone receptor 1 (Homo sapiens, UniProt Q99705)
- ASSAY: Antagonist activity at human MCHR1 expressed in HEK293 cells assessed as [35S]GTPgammaS accumulation
- Assay type: functional, cell-based
REPORTED_METRIC: IC50 (nM)

COMPOUND: O=C(CC1CCN(Cc2ccn(-c3ccc(C(F)(F)F)cc3)c2)CC1)NC(c1ccc(F)cc1)c1c[nH]c(=O)c(Cl)c1 (centres undefined)
SCALE_UNIT: nM
IC50: 21
//
COMPOUND: CCCCC(NC(=O)CC1CCN(Cc2ccn(-c3ccc(C(F)(F)F)cc3)c2)CC1)c1ccc(=O)[nH]c1 (centres undefined)
SCALE_UNIT: nM
IC50: 19

P: O=C(CC1CCN(Cc2ccn(-c3ccc(C(F)(F)F)cc3)c2)CC1)NC(c1ccc(F)cc1)c1ccc(=O)[nH]c1 (centres undefined)
Q: O=C(CC1CCN(Cc2ccn(-c3ccc(C(F)(F)F)cn3)c2)CC1)NC(c1ccc(F)cc1)c1ccc(F)cc1
Query: Please state the entry with greater IC50 among P and Q . # respond with the chosen item's label
Response: P
(P: 25 nM, Q: 17 nM)

###

- TARGET_OF_ASSAY: Voltage-gated inwardly rectifying potassium channel KCNH2 (Homo sapiens)
- ASSAY: Inhibition of human ERG expressed in CHO cells by patch clamp assay
- Format: cell-based
Catalogue of IC50 readings, one per entry.
# output: bare number, implied unit nM

Example results:
COMPOUND: O=C(CC1CCN(Cc2ccn(-c3ccc(C(F)(F)F)cc3)c2)CC1)N(CCCO)Cc1ccc(F)cc1
IC50 [nM]: 630
//
COMPOUND: Cc1nccn1CC(NC(=O)CC1CCN(Cc2ccn(-c3ccc(C(F)(F)F)cc3)c2)CC1)c1ccccc1 (centres undefined)
IC50 [nM]: 26600
//
COMPOUND: O=C(CC1CCN(Cc2ccn(-c3ccc(C(F)(F)F)cc3)c2)CC1)NC(c1ccc(F)cc1)c1cccnc1 (centres undefined)
IC50 [nM]: 2170
//
COMPOUND: O=C(CC1CCN(Cc2ccc(-c3ccc(Cl)cc3)o2)CC1)NCC(O)C(F)(F)F (centres undefined)
IC50 [nM]: 1020
//
COMPOUND: O=C(NCc1ccc(Cl)cc1O)C1CCN(Cc2ccn(-c3ccc(C(F)(F)F)cc3)c2)CC1
IC50 [nM]: 1550

Query: For Voltage-gated inwardly rectifying potassium channel KCNH2 (Homo sapiens), give IC50 of the listed compound: O=C(CC1CCN(Cc2ccn(-c3ccc(C(F)(F)F)cc3)c2)CC1)NC(c1ccccc1)c1cnc[nH]1 (centres undefined)
Response: 11400

Query: For Voltage-gated inwardly rectifying potassium channel KCNH2 (Homo sapiens), give IC50 of the listed compound: COCC(O)CN(Cc1ccc(F)cc1)C(=O)CC1CCN(Cc2ccc(-c3ccc(Cl)cc3)o2)CC1 (centres undefined)
Response: 1090

Query: For Voltage-gated inwardly rectifying potassium channel KCNH2 (Homo sapiens), give IC50 of the listed compound: O=C(CN1CCN(Cc2ccn(-c3ccc(C(F)(F)F)cn3)c2)CC1)NC(c1ccc(F)cc1)c1ccc(F)cc1
Response: 800

Query: For Voltage-gated inwardly rectifying potassium channel KCNH2 (Homo sapiens), give IC50 of the listed compound: O=C(CC1CCN(Cc2ccc(-c3ccc(Cl)cc3)o2)CC1)N1CCCC(CO)C1 (centres undefined)
Response: 2340

###

- TARGET_OF_ASSAY: Voltage-gated inwardly rectifying potassium channel KCNH2 (Homo sapiens)
- ASSAY: Inhibition of human ERG activation expressed in CHO cells by rubidium efflux assay
- Type: cell-based
Catalogue of pIC50 readings, one per entry.
# pIC50 is unitless: minus log10 of the molar concentration; print number only

CHEMICAL_STRUCTURE: O=C(NCc1ccc(Cl)cc1Cl)N1CCN(Cc2ccn(-c3ccc(C(F)(F)F)cc3)c2)CC1
ENDPOINT_RESULT: 5.80

Query: Using known records, supply pIC50 for O=C(NCc1ccc(Cl)cc1Cl)C1CCN(Cc2ccn(-c3ccc(C(F)(F)F)cn3)c2)CC1
Response: 5.46

###

- TARGET_OF_ASSAY: Voltage-gated inwardly rectifying potassium channel KCNH2 (Homo sapiens, UniProt Q12809)
- Sequence (Q12809 whole entry): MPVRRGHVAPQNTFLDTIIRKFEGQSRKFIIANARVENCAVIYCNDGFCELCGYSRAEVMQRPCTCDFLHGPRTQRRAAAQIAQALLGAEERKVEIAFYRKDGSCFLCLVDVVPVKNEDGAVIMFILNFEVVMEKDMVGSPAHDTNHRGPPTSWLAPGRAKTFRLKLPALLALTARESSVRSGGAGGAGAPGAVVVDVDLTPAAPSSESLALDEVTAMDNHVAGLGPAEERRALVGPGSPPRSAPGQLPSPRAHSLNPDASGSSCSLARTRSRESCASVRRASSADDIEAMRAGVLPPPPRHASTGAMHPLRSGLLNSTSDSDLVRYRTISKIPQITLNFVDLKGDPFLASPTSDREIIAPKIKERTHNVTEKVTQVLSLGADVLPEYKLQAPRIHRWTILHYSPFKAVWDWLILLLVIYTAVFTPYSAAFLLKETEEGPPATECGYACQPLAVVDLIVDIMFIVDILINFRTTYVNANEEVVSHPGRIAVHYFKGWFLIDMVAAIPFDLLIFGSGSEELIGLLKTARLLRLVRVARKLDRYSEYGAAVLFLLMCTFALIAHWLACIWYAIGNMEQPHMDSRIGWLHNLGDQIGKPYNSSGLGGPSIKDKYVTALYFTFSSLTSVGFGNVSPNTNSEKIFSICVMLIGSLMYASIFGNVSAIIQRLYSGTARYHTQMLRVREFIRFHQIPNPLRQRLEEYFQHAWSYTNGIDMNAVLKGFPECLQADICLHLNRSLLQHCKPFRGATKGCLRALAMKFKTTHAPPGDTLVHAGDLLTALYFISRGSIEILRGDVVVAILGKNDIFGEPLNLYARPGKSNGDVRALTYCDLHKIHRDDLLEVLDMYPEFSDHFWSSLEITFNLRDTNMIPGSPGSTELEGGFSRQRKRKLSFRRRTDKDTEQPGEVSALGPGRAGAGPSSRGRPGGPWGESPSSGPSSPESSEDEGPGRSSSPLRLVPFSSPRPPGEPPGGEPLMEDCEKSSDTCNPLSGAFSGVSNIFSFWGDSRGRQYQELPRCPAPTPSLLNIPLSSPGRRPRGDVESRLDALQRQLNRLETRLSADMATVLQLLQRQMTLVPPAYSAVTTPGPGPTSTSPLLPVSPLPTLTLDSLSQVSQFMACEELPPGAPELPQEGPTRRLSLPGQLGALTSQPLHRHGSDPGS
- ASSAY: Inhibition of human ERG expressed in CHO cells by patch clamp assay
- Type: cell-based
Catalogue of IC50 readings, one per entry.
# output: bare number, implied unit µM

Example results:
MOLECULE: CCCCC(NC(=O)CC1CCN(Cc2ccn(-c3ccc(C(F)(F)F)cc3)c2)CC1)c1ccc(OC)nc1 (stereo not drawn)
IC50 [µM]: 1
//
MOLECULE: O=C(NCC1(O)CCCCC1)C1CCN(Cc2ccn(-c3ccc(C(F)(F)F)cc3)c2)CC1
IC50 [µM]: 11.7

Query: Using known records, supply IC50 for O=C(CC1CCN(Cc2ccn(-c3ccc(C(F)(F)F)cc3)c2)CC1)N1CCCC(C(=O)N2CCCC2)C1 (stereo not drawn)
Response: 31

Query: Using known records, supply IC50 for COc1ccc(C(NC(=O)CC2CCN(Cc3ccn(-c4ccc(C(F)(F)F)cc4)c3)CC2)c2ccc(F)cc2)cn1 (stereo not drawn)
Response: 1.75

Query: Using known records, supply IC50 for O=C(NCCc1ccccn1)C1CCN(Cc2ccn(-c3ccc(C(F)(F)F)cc3)c2)CC1
Response: 10

Query: Using known records, supply IC50 for CCN(CC)C(=O)C1CCCN(C(=O)CC2CCN(Cc3ccn(-c4ccc(C(F)(F)F)cc4)c3)CC2)C1 (stereo not drawn)
Response: 16
